Recorded measurements of IC50, one per entry
subject-of-test: human IDO1/HEK293 cells (Homo sapiens)
Sequence (P14902 whole entry): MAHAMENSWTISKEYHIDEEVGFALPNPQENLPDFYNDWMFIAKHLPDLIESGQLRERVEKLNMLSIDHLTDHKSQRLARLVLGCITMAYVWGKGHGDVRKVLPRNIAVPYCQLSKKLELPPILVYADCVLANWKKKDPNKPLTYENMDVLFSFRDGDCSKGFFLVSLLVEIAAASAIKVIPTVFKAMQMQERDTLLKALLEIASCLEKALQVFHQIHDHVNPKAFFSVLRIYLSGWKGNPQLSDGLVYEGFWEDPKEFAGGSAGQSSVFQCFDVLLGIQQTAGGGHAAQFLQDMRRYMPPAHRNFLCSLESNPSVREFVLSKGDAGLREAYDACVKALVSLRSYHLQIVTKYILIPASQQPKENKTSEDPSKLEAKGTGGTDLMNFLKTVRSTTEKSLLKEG
assay-info: HEK Human IDO-1 cell-based IDO inhibition assay (kynurenine production)
reported-conditions: HEK293 cells stably expressing human IDO1, 20 hours incubation, absorbance at 490 nm; read-out: HEK Human IDO-1 Bio Activity (IDO IC50)

# count of solved cases: 2
[[record]]
compound = "O=C(N[C@H]1CC[C@H](c2ccnc3ccc(F)cc32)CC1)c1ccc(Cl)cc1"
reading = "< 2000 nM"

[[record]]
compound = "CCC(NC(=O)c1ccc(C#N)cc1)C1CCC(c2ccnc3ccc(F)cc23)CC1 (single isomer, unassigned) [Example 165b]"
reading = "< 50 nM"


What value of IC50 has been recorded for this entry: CCC(NC(=O)c1ccc(Cl)cc1)[C@H]1CC[C@@H](Oc2ccncc2)CC1 (mixture of isomers) [Example 77a]
< 250 nM

What value of IC50 has been recorded for this entry: C[C@@H](NC(=O)c1ccccn1)[C@H]1CC[C@@H](c2ccnc3ccc(F)cc32)CC1
< 50 nM

What value of IC50 has been recorded for this entry: COc1ccc(-c2ccc(C(=O)N[C@H](C)[C@H]3CC[C@@H](c4ccnc5ccc(F)cc54)CC3)cc2)cn1
< 50 nM

What value of IC50 has been recorded for this entry: CCC(NC(=O)c1ccc(Cl)cc1)[C@H]1CC[C@@H](Oc2ccnc3ccc(C(F)(F)F)cc23)CC1 (mixture of isomers)
< 2000 nM

What value of IC50 has been recorded for this entry: CCC(NC(=O)c1ccc(Cl)cc1)[C@H]1CC[C@H](Oc2ccnc3c(C(F)(F)F)cccc23)CC1 (stereo partly shown)
< 2000 nM

* * *

subject-of-test: human IDO1/HEK293 cells (Homo sapiens)
assay-info: HEK Human IDO-1 cell-based IDO inhibition assay (kynurenine production)
reported-conditions: HEK293 cells stably expressing human IDO1, 20 hours incubation, absorbance at 490 nm; read-out: HEK Human IDO-1 Bio Activity (IDO IC50)
pIC50: −log10 of the molar value.
Recorded measurements of pIC50, one per entry

# count of solved cases: 4
[[record]]
compound = "Cc1ccc(C(=O)N[C@H](C)[C@H]2CC[C@@H](c3ccnc4ccc(F)cc43)CC2)cc1"
experimental_endpoint = "pIC50"
reading = "> 7.30"

[[record]]
compound = "CC(NC(=O)c1ccc(Cl)cc1)C1CCC(c2ccnc(C(F)(F)F)c2)CC1 (single isomer, unassigned) [Example 212]"
experimental_endpoint = "pIC50"
reading = "> 5.70"

[[record]]
compound = "O=C(Nc1ccc(Cl)cc1)[C@H]1CC[C@H](c2ccnc3ccc(F)cc32)CC1"
experimental_endpoint = "pIC50"
reading = "> 6.60"

[[record]]
compound = "Cc1cc(C2CCC(C(C)NC(=O)c3ccc(Cl)cc3)CC2)ccn1 (single isomer, unassigned) [Example 157b]"
experimental_endpoint = "pIC50"
reading = "> 7.30"


Next compound, pIC50 to be filled in.
What value of pIC50 has been recorded for this entry: C[C@@H](NC(=O)c1cccc(-c2ccccc2)c1)[C@H]1CC[C@@H](c2ccnc3ccc(F)cc32)CC1
> 7.30

Values from patent US20180325889A1
